Values from the supplement of paper PMC8728848

MEASURED_TARGET: Neu5Ac(a2-3)Gal(b1-4)GlcNAc(b1-3)Gal(b1-4)GlcNAc
MEASUREMENT_NOTES: glycan array binding signal (z-score within array); higher = stronger binding
REPORTED_CONDITIONS: glycan notation: IUPAC condensed, linker removed
The sample as a whole holds a higher share of the strongest signals than the screen did.
Listed here: items and their measured glycan array binding signal (z-score).
A bare number is all that is needed in reply.

CVNH0 (Neurospora crassa), Q7S6U4 (protein) GSHIGPYMSFHVTAEDARIEVRDNRTILFARLRREDGEWNDASYELDQIIGNNDGHFQWGGQNFTETAEDIRFHPKEGAAEQPILRARLRDCNGEFHDRDVNLTEIVENVNGEFQAKF : -0.351
HPA (Helix pomatia), Q575S3 (protein) MWAHLTGLLLICALSLSAAQRAQTGEIDCGSDSSWPKDPSDNPNRDNTREIVKHVTFSPQFCREPKVILSVTTLDAEHTKNLRYEARLKSVSPSGLSASCYSWHDGTIYRMKLSWLAVED : -0.267
L-Selectin (Homo sapiens), P14151 (protein) MIFPWKCQSTQRDLWNIFKLWGWTMLCCDFLAHHGTDCWTYHYSEKPMNWQRARRFCRDNYTDLVAIQNKAEIEYLEKTLPFSRSYYWIGIRKIGGIWTWVGTNKSLTEEAENWGDGEPNNKKNKEDCVEIYIKRNKDAGKWNDDACHKLKAALCYTASCQPWSCSGHGECVEIINNYTCNCDVGYYGPQCQFVIQCEPLEAPELGTMDCTHPLGNFSFSSQCAFSCSEGTNLTGIEETTCGPFGNWSSPEPTCQVIQCEPLSAPDLGIMNCSHPLASFSFTSACTFICSEGTELIGKKKTICESSGIWSNPSPICQKLDKSFSMIKEGDYNPLFIPVAVMVTAFSGLAFIIWLARRLKKGKKSKRSMNDPY : -0.338

API: the following record is the query input.
Fill blank: measured glycan array binding signal (z-score) of the binder MSMEG3662-2a (Mycobacterium smegmatis), A0QYH7_MYCS2 (protein) MGDTLTAGQKLERGGSLQSGNGAYTLTLQDDGNLVLYARDKAVWSTGTNGQDVVRAEVQTDGNFVLYTAEKPVWHTDTKGKKEVKLVLQDDRNLVLYAKDGPAWSSKTDTTEPPPPAPEPEKEAEVAPAAAEEAAPAPVAEPAPAEPAPAAPPPAPPAPRTYTVVSGDTLWAIAERFYGDGSKYQQIADASGIANPDLIHPGQVLTIP is ____.
0.065
